- ASSAY_EXPLANATION: in vivo
- CONDITION_CONTEXT: rat, iv
clearance below 30 mL/min/kg gives FALSE; clearance at or above it gives TRUE.

INSERT INTO results (compound, label) VALUES
  ('Cc1nc2ccccc2n1C1CC2CCC(C1)N2CCC1(c2cccc(F)c2)CCN(C(=O)C(C)(C)C)CC1 (configuration not stated)', 'FALSE'),
  ('Cc1nc2ccccc2n1C1CC2CCC(C1)N2CCC1(c2cccc(F)c2)CCN(C(=O)C2(C(=O)O)CCC2)CC1 (configuration not stated)', 'TRUE'),
  ('Cc1nc2ccccc2n1C1CC2CCC(C1)N2CCC1(c2ccccc2)CCN(C(=O)c2cccc(C(=O)O)c2)CC1 (configuration not stated)', 'TRUE'),
  ('Cc1nc2ccccc2n1C1CC2CCC(C1)N2CCC1(c2cccc(F)c2)CCN(C(=O)c2ccc(Cl)c(S(N)(=O)=O)c2)CC1 (configuration not stated)', 'FALSE'),
  ('Cc1nc2ccccc2n1C1CC2CCC(C1)N2CCC1(c2ccccc2)CCN(C(=O)c2ccc3c(c2)CC(=O)NS3(=O)=O)CC1 (configuration not stated)', 'FALSE'),
  ('Cc1nc2ccccc2n1C1CC2CCC(C1)N2CCC1(c2ccccc2)CCN(C(=O)c2ccc(Cl)c(S(N)(=O)=O)c2)CC1 (configuration not stated)', 'TRUE');

We now examine a further compound.
Query :: Check this compound for clearance at or above 30 mL/min/kg: Cc1nc2ccccc2n1C1CC2CCC(C1)N2CCC1(c2ccccc2)CCN(C(=O)C(C)(C)C(=O)NS(C)(=O)=O)CC1 (configuration not stated)
Result :: TRUE

----------
- ASSAY_EXPLANATION: in vivo
- CONDITION_CONTEXT: rat, iv
The entries below come with measured clearance values attached.
Quick note: unit goes after the number.

Illustrative cases are given below, each with its answer.
INSERT INTO assay_data (molecule, result) VALUES
  ('Cc1nc2ccccc2n1C1CC2CCC(C1)N2CCC1(c2ccccc2)CCN(C(=O)c2ccccc2C(=O)O)CC1 (stereo not drawn)', '114 mL/min/kg'),
  ('Cc1nc2ccccc2n1C1CC2CCC(C1)N2CCC1(c2ccccc2)CCN(C(=O)C(C)(C)c2nnn[nH]2)CC1 (stereo not drawn)', '156 mL/min/kg');

Kindly review the next molecule as well.
Query :: Param item = Cc1cccc(C2(CCN3C4CCC3CC(n3c(C)nc5ccccc53)C4)CCN(C(=O)c3ccc(Cl)c(S(N)(=O)=O)c3)CC2)c1 (stereo not drawn) ; retrieve measured clearance.
Result :: 28.3 mL/min/kg

----------
- ASSAY_EXPLANATION: AUC in male dog at 250 mg/kg/day, iv
- Format: ADME, organism-based, Canis lupus familiaris
- Parameters: route intravenous
- CONDITION_CONTEXT: plasma
PROPERTY: AUC

Query :: Param item = CNS(=O)(=O)c1cc(C(=O)N2CCC(CCN3C4CCC3CC(n3c(C)nc5ccccc53)C4)(c3cccc(F)c3)CC2)c(Cl)cc1F (stereo unspecified) ; retrieve measured AUC.
Result :: 17200 ng·h/mL

----------
- ASSAY_EXPLANATION: AUC in male rat at 2000 mg/kg/day, iv
- Format: ADME, organism-based
- Parameters: route intravenous
- CONDITION_CONTEXT: plasma
PROPERTY: AUC (ng·h/mL)
// return numeric value only (unit: ng·h/mL, not printed)

Query :: Param item = CNS(=O)(=O)c1cc(C(=O)N2CCC(CCN3C4CCC3CC(n3c(C)nc5ccccc53)C4)(c3cccc(F)c3)CC2)c(Cl)cc1F (stereo unspecified) ; retrieve measured AUC.
Result :: 77000

Reference source: ChEMBL document CHEMBL1781974
